B1: Membrane-associated guanylate kinase, WW and PDZ domain-containing protein 3, residues 287 to 329; numbered along this chain, Q5TCQ9 (parent)
chain: MRDETLEPLPKNWEMAYTDTGMIYFIDHNTKTTTWLDPRLCKK

Variants of: B1
procedure.text: abundance fitness (aPCA) (normalised: wild type 0, dead -1); higher = more abundant; growth selection in yeast, the domain comes from the species named
study.conditions: Homo sapiens
In this section we review reported abundance fitness values for a set of variants.

mutant.code: K31N
abundance fitness: -0.159
--
mutant.code: I26L
abundance fitness: -0.097
--
mutant.code: K31W
abundance fitness: -0.278
--
mutant.code: D37C
abundance fitness: -0.459
--
mutant.code: Y24W
abundance fitness: -0.579
--
mutant.code: D27V
abundance fitness: -1.01
--
mutant.code: T33L
abundance fitness: -0.496
--
mutant.code: L36N
abundance fitness: -0.121
--
mutant.code: D37K
abundance fitness: -0.407
--
mutant.code: W35M
abundance fitness: -0.16
--
mutant.code: T30W
abundance fitness: -0.572
--
mutant.code: R39L
abundance fitness: -0.349
--
mutant.code: K43I
abundance fitness: -0.144
--
mutant.code: T30I
abundance fitness: -0.423
--
mutant.code: T32N
abundance fitness: -0.215
--
mutant.code: F25R
abundance fitness: -0.692
--
mutant.code: L36H
abundance fitness: -0.037
--
mutant.code: T33H
abundance fitness: -0.535
--
mutant.code: I23F
abundance fitness: -0.162
--
mutant.code: T33D
abundance fitness: -0.648
--
mutant.code: N29T
abundance fitness: -0.051
--
mutant.code: T34P
abundance fitness: -0.906
--
mutant.code: K42I
abundance fitness: -0.097
--
mutant.code: T33G
abundance fitness: -0.551
--
mutant.code: F25M
abundance fitness: -0.721
--
mutant.code: K42C
abundance fitness: -0.146
--
mutant.code: T34L
abundance fitness: -1.21
--
mutant.code: F25Q
abundance fitness: -0.634
--
mutant.code: N29P
abundance fitness: -0.525
--
mutant.code: L40D
abundance fitness: -0.039
--
mutant.code: L40K
abundance fitness: 0.016

Cited source: the Human Domainome abundance scans (Beltran et al. 2025)
